system: 616215-338-R-J1-PDC complex spheroid viability; assay: Anticancer human tumor 616215-338-R-J1-PDC patient-derived colon adenocarcinoma cell line growth inhibition [RAS]; details: second compound 0.003 µM; first compound 0.1 µM; hits give low values
Measured viability, T/C values are reported for all entries that follow.

// solved cases for viability, T/C follow
- NC1c2ccccc2OC12CCN(c1cnc3c(N4CCCc5ncccc54)n[nH]c3n1)CC2 (centres undefined) + CCn1c(-c2cc(N3CCN(C)CC3)cnc2C(C)OC)c2c3cc(ccc31)-c1csc(n1)CC(NC(=O)C1CC1C)C(=O)N1CCCC(N1)C(=O)OCC(C)(C)C2: 60.6%
- CC(Nc1ccc2c(c1)OCCn1cc(N3C(=O)OCC3C(F)F)nc1-2)C(N)=O (centres undefined) + CCn1c(-c2cccnc2C(C)OC)c2c3cc(ccc31)N1CCOC(CC(NC(=O)C(C(C)C)N(C)C(=O)C3(F)CCN(C(=O)C#CC(C)(C)N(C)C)CC3)C(=O)N3CCCC(N3)C(=O)OCC(C)(C)C2)C1: 116%
- Nc1ccn(C2OC(CO)C(O)C2(F)F)c(=O)n1 (centres undefined) + CCn1c(-c2cccnc2C(C)OC)c2c3cc(ccc31)N1CCOC(CC(NC(=O)C(C(C)C)N(C)C(=O)C3(F)CCN(C(=O)C#CC(C)(C)N(C)C)CC3)C(=O)N3CCCC(N3)C(=O)OCC(C)(C)C2)C1: 14.6%

Let us examine a further case.
Recorded result, C=CC(=O)N1CCN(c2nc(OCC3CCCN3C)nc3c(F)c(-c4nc(N)cc(C)c4C(F)(F)F)c(Cl)cc23)C(C)C1 (centres undefined) + CCn1c(-c2cc(N3CCN(C)CC3)cnc2C(C)OC)c2c3cc(ccc31)-c1csc(n1)CC(NC(=O)C1CC1C)C(=O)N1CCCC(N1)C(=O)OCC(C)(C)C2 , viability, T/C: 109%

---

system: 616215-338-R-J1-PDC complex spheroid viability; assay: Anticancer human tumor 616215-338-R-J1-PDC cell line growth inhibition [RAS]; settings: second compound 0.03 µM; first compound 0.1 µM; hits give low values;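 note: spheroids exposed to agents for seven days before viability readout; 100% = DMSO vehicle control viability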
Measured viability, T/C values are reported for all entries that follow.
Express the result in % but write the number alone.

// solved cases for viability, T/C follow
• C[C@@H](NC(=O)c1ncnc(N)c1Cl)c1ncc(C(=O)Nc2cc(C(F)(F)F)c(Cl)cn2)s1 + CCn1c(-c2cc(N3CCN(C)CC3)cnc2C(C)OC)c2c3cc(ccc31)-c1csc(n1)CC(NC(=O)C1CC1C)C(=O)N1CCCC(N1)C(=O)OCC(C)(C)C2 = 62.2
• CCN1CCN(Cc2ccc(Nc3ncc(F)c(-c4cc(F)c5nc(C)n(C(C)C)c5c4)n3)nc2)CC1 + CCn1c(-c2cccnc2C(C)OC)c2c3cc(ccc31)N1CCOC(CC(NC(=O)C(C(C)C)N(C)C(=O)C3(F)CCN(C(=O)C#CC(C)(C)N(C)C)CC3)C(=O)N3CCCC(N3)C(=O)OCC(C)(C)C2)C1 = 122

Recorded result, CCN1CCN(Cc2ccc(Nc3ncc(F)c(-c4cc(F)c5nc(C)n(C(C)C)c5c4)n3)nc2)CC1 + CCn1c(-c2cc(N3CCN(C)CC3)cnc2C(C)OC)c2c3cc(ccc31)-c1csc(n1)CC(NC(=O)C1CC1C)C(=O)N1CCCC(N1)C(=O)OCC(C)(C)C2 , viability, T/C: 32.5
